system: A/J mice; test: Induction of myocarditis by immunization with SERCA2a peptides, histology; assay type: in vivo, mouse; settings: individual peptide/CFA + PT, day 21, H&E; normal = 0 foci
Ends that are not written are not given here.
readout.kind: Severity of lesions, Ventricle, Number of animals affected (%), Normal

substance	numeric.result
SERCA2a 471-490: N-terminally acetylated 20-mer peptide of SERCA2a, residues 471-490 (Ac-CNSVIKQLMKKEFTLEFSRD; UniProt P16615 471-490, looked up, fragment)	5
SERCA2a 31-50: N-terminally acetylated 20-mer peptide of SERCA2a, residues 31-50 (Ac-KLKERWGSNELPAEEGKTLL; UniProt P16615 31-50, looked up, fragment)	4
SERCA2a 591-610: N-terminally acetylated 20-mer peptide of SERCA2a, residues 591-610 (Ac-TFVGCVGMLDPPRIEVASSV; UniProt P16615 591-610, looked up, fragment)	5
SERCA2a 481-500: N-terminally acetylated 20-mer peptide of SERCA2a, residues 481-500 (Ac-KEFTLEFSRDRKSMSVYCTP; UniProt P16615 481-500, looked up, fragment)	5
